Test system: Fibroblast
ASSAY_PROCEDURE: Multiplex assay against human fibroblast
Type: toxicity, cell-based
TEST_CONDITIONS: 12 h, 10 µM, compound concentration 10 uM, replicate 2
READOUT_KIND: Population Apoptotic (%)

                                   compound         tgt  value
0  CN1C(=O)[C@@H](NC(=O)c2cc3ccccc3[nH]2)N=C(c2ccccc2)c2ccccc21 [DEVAZEPIDE]  Fibroblast     33
1  CCCc1cc(C)[nH]c(=O)c1CNC(=O)c1cc(-c2ccc(N3CCN(C(C)C)CC3)nc2)cc2c1cnn2C(C)C  Fibroblast     85
2  Cl.NC[C@@H]1O[C@H](C23CC4CC(CC(C4)C2)C3)Cc2c1ccc(O)c2O  Fibroblast     52
